Molecular target: Chromo domain-containing protein 1 (Saccharomyces cerevisiae (strain ATCC 204508 / S288c) (Baker's yeast)) (UniProt P32657)
Sequence (P32657 whole entry, the tested form may be a part): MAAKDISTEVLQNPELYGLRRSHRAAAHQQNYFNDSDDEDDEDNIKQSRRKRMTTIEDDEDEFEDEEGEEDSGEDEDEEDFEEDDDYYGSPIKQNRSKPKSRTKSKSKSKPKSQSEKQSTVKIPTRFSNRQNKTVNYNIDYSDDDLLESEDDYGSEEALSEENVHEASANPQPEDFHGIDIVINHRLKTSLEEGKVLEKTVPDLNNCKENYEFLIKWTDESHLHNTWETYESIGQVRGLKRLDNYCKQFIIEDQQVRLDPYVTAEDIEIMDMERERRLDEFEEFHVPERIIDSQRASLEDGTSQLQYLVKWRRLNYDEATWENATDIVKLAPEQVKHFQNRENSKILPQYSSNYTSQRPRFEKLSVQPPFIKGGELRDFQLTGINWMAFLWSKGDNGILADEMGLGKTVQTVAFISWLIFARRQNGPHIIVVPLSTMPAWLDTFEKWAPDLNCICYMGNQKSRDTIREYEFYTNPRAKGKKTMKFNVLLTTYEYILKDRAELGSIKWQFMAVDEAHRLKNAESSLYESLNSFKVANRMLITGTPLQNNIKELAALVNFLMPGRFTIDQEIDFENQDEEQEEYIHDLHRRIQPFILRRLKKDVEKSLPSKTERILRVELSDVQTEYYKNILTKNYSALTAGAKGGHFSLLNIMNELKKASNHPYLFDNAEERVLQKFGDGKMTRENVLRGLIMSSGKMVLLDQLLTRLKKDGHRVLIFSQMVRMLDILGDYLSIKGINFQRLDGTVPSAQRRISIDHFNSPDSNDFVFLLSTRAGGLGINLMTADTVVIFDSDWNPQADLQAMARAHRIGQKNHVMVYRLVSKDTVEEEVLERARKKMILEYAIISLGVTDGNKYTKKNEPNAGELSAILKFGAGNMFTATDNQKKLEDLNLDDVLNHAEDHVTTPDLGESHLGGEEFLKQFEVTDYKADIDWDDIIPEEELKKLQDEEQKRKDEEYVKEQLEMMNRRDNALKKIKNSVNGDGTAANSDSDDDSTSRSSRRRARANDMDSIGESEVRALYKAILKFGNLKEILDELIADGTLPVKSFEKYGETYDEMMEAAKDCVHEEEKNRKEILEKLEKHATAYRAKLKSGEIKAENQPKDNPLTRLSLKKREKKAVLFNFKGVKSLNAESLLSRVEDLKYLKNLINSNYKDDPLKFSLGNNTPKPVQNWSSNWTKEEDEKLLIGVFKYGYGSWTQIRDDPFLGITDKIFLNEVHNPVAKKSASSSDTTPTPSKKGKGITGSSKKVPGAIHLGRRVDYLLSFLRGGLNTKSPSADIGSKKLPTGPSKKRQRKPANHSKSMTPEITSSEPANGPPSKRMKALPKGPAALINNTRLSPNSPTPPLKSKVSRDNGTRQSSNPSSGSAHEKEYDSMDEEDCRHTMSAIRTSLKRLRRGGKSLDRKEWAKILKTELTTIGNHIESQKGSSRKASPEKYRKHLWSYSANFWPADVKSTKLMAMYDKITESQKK
Assay: ScCHD-1 Enzyme Inhibition Assay; further: in the data most compounds retested in dose-response had high values
Format: functional
Parameters: scale not given: direction of the effect not stated beside the values
Settings: 30 µM
Overview of reported Percent Effect across a group of compounds:
Please state the figure in %; there is no need to write the unit.

1) CCN(Cc1ccc2c(c1)OCCO2)S(=O)(=O)N(C)C(C)C	-6.79
2) c1ccc(N2CCOC3(CCCN(c4nncs4)C3)C2)nc1 (stereo unspecified)	-7.1
3) CCn1ccnc1CN1CCC(CCC(=O)Nc2ccccc2Cl)CC1	83.4

Entry COc1ccc(NC(=O)c2ccc[nH]2)c(N2CCN(C(C)=O)CC2)n1 — recorded Percent Effect = -6.01

Entry CN1CCN(CC2CC2)C(=O)c2cnc(N3CCCCC3)nc21 — recorded Percent Effect = -2.64

Entry Cc1nc(C)n(CC2CN(CCCOc3ccccc3C)CCO2)n1 (stereo unspecified) — recorded Percent Effect = -5.97

Entry c1ccc(Cn2cncn2)c(CNCC2CNc3ccnn3C2)c1 (stereo unspecified) — recorded Percent Effect = -7.41

###

Overview of reported Percent Effect across a group of compounds:
Target: Tyrosyl-tRNA synthetase, putative (Trypanosoma cruzi (strain CL Brener)) (UniProt Q4DSP6)
Sequence (Q4DSP6 as listed by the source): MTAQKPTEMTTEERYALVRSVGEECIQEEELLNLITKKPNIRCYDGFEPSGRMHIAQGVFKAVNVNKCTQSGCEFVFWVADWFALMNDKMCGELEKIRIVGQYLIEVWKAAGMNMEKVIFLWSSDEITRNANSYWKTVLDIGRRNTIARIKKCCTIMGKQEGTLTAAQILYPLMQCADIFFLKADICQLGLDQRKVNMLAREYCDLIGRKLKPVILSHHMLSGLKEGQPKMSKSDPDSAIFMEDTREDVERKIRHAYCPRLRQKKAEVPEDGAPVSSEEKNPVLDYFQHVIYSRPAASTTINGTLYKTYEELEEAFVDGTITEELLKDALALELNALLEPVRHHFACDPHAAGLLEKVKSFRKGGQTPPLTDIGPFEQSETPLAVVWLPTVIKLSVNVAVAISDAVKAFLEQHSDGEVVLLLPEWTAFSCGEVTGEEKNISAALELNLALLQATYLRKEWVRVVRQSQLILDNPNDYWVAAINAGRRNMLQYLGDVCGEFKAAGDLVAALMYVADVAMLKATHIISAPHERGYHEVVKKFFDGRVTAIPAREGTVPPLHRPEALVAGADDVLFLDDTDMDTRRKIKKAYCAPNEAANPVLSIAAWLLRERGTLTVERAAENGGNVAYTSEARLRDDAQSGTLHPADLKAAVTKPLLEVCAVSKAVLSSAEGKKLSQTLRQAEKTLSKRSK
Assay: Trypanosoma cruzi tyrosyl tRNA synthetase (TcYRS) _High Tyrosine SOP; further: in the data most compounds retested in dose-response had high values
Format: functional
Set-up: scale not given: direction of the effect not stated beside the values
Conditions: 30 µM
Please state the figure in %; there is no need to write the unit.

1. Cc1cc(S(=O)(=O)N2CCc3ccc(F)cc32)cc(C(=O)O)c1C	-15.3

Entry CSc1ccc(C(CN)N2CCc3sccc3C2)cc1 (configuration not stated) — recorded Percent Effect = 17

Entry CCN(Cc1cccc2c1OCO2)C(=O)C(C)c1cccnc1 (configuration not stated) — recorded Percent Effect = 3.92

Entry Cc1n[nH]c(=O)c2c(NC(=O)CN3CCC(O)CC3)oc(C)c12 — recorded Percent Effect = 4.31

Entry CC(O)CN1CCN(C(=O)c2ccc(Br)o2)CC1 (configuration not stated) — recorded Percent Effect = 4.41

Entry Clc1ccc(OCCCN2CCN(c3cnccn3)CC2)cc1 — recorded Percent Effect = 11.8

###

Biological target: Proteasome subunit beta (Trypanosoma cruzi) (UniProt O96673)
Sequence (whole entry): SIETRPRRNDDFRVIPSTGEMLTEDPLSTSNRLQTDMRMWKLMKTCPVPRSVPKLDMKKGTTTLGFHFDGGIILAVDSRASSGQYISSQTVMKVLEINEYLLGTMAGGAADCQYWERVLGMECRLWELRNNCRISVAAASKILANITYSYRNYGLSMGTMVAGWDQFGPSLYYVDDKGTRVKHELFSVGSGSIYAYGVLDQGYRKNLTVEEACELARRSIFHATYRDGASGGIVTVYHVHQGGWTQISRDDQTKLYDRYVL
Test: Trypanosoma cruzi proteasome chymotrypsin-like activity (TcProtChymo) assay. Further: in the data most compounds retested in dose-response had high values.
Assay type: functional
Set-up: scale not given: direction of the effect not stated beside the values
Details: 9.37 µM
Overview of reported Percent Effect across a group of compounds:
Please state the figure in %; there is no need to write the unit.

Solved cases below.
1. Cn1ccc(C(=O)N2CCN(CCc3ccccc3)CC2)cc1=O	13
2. O=C(NCCCn1ccnc1)N1CCCC1c1cccs1 (configuration not stated)	11
3. CO[C@H]1CCN(Cc2cccc(C)n2)[C@@H]2CN(Cc3cccnc3)C[C@H]12	15.5
4. c1cc(C2CCCN2Cc2nnnn2C2CC2)cs1 (configuration not stated)	21.2
5. CCC(CNC(=O)c1ccc(Br)o1)N1CCc2ccccc2C1 (configuration not stated)	10.9

The recorded Percent Effect with Proteasome subunit beta (Trypanosoma cruzi) (UniProt O96673) for NC(=O)c1cc(C2CCCN(CCCOc3ccccc3)C2)n[nH]1 (configuration not stated) was 1.79

The recorded Percent Effect with Proteasome subunit beta (Trypanosoma cruzi) (UniProt O96673) for OCCn1cc(CN2CCN(CCOc3ccccc3)CC2)cn1 was 11.3

The recorded Percent Effect with Proteasome subunit beta (Trypanosoma cruzi) (UniProt O96673) for CC(O)CNC(=O)NCc1ccc(N2CCNC(=O)C2)cc1 (configuration not stated) was 4.73

The recorded Percent Effect with Proteasome subunit beta (Trypanosoma cruzi) (UniProt O96673) for NC(=O)c1cc(C2CCCN(CCc3ccccn3)C2)n[nH]1 (configuration not stated) was -3.67

The recorded Percent Effect with Proteasome subunit beta (Trypanosoma cruzi) (UniProt O96673) for COc1ccc(CNC(=O)C2(C#N)CCCC2)cc1 was 15.1

The recorded Percent Effect with Proteasome subunit beta (Trypanosoma cruzi) (UniProt O96673) for COc1ccc(-n2nnc(C(=O)NC(C)C)c2C2CC2)cc1 was 4.21

The recorded Percent Effect with Proteasome subunit beta (Trypanosoma cruzi) (UniProt O96673) for COc1cccc(CNC(=O)N2CCN(Cc3cc(C)on3)CC2)c1 was 1.39

###

Target: Tyrosyl-tRNA synthetase, putative (Trypanosoma cruzi (strain CL Brener))
Experiment: Trypanosoma cruzi tyrosyl tRNA synthetase (TcYRS) SOP
Type: functional
Parameters: scale not given: direction of the effect not stated beside the values
Details: 30 µM
outcome_measure: Percent Effect (%)
Please state the figure in %; there is no need to write the unit.

Solved cases below.
1. Cc1nn(C)c(C)c1CNCc1ccnc(N2CCOCC2)c1	-2.53
2. CN(C)C(=O)N1CCc2c(CNc3ncccn3)cncc2C1	7.5

Now let's try a different one.
Entry CCc1noc(C(C)N2CCOCC2)n1 (configuration not stated) — recorded Percent Effect = 5.13

###

Target: Arginase-2, mitochondrial (Homo sapiens) (UniProt P78540)
Sequence (whole entry): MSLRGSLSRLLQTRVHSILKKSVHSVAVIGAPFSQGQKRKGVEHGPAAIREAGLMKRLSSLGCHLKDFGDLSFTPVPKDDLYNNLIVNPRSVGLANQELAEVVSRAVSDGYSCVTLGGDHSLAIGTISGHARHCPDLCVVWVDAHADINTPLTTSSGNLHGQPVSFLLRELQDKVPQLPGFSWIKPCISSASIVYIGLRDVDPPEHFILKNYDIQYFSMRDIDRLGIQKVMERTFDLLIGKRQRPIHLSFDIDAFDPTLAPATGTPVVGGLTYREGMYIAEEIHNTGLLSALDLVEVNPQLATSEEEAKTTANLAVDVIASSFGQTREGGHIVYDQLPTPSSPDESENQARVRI
Assay: in vitro enzyme assay to detect the production of urea directly proportional to the activity of Arginase II; further: in the data most compounds retested in dose-response had high values
Format: functional
Design: scale not given: direction of the effect not stated beside the values
Details: 33.3 µM
outcome_measure: Percent Effect (%)
Please state the figure in %; there is no need to write the unit.

Solved cases below.
1) CC(C)c1noc(CN2CCC3(CCCO3)CCC2=O)n1 (centres undefined)	-0.521
2) COCCNC(=O)c1ccc(C)c(-n2cccc2)c1	-2.37
3) NC(=O)c1cc(C2CCCN(CCOCC(F)(F)F)C2)n[nH]1 (centres undefined)	-5.33
4) Cn1ccnc1CN1C[C@@H](CN2CCC(CO)CC2)[C@@H](CO)C1	-1.43
5) O=C(CN1CCCC(c2ccc(C(=O)O)cc2)C1)NC1CC1 (centres undefined)	8.04

Entry Cc1cnn(CC2CCCN2CC(=O)Nc2nc(C)cs2)c1 (centres undefined) — recorded Percent Effect = 5.12

Entry CNS(=O)(=O)c1ccc(C(=O)NCCc2ccccn2)cc1 — recorded Percent Effect = -5.4

Entry O=C(NCCNc1ncccn1)Nc1cc(C(F)(F)F)c[nH]c1=O — recorded Percent Effect = -2.4

Entry CC(NC1(CNC(=O)CC(C)(C)C)CCOCC1)c1ccccc1 (centres undefined) — recorded Percent Effect = 4.22

Entry CC(=O)NCCc1ccc(C(=O)N2CCCC2c2cnn(C)c2)cc1 (centres undefined) — recorded Percent Effect = -3.6

###

Target: Tyrosyl-tRNA synthetase, putative (Trypanosoma cruzi (strain CL Brener)) (UniProt Q4DSP6)
Assay: Trypanosoma cruzi tyrosyl tRNA synthetase (TcYRS) _High Tyrosine SOP; further: in the data most compounds retested in dose-response had high values
Type: functional
Parameters: scale not given: direction of the effect not stated beside the values
Details: 30 µM
outcome_measure: Percent Effect (%)
Please state the figure in %; there is no need to write the unit.

1. COC(=O)c1ccc(N2CCN(CCC(=O)NC(N)=O)C(C)C2)cc1 (stereo unspecified)	5.42

Entry CCC(=O)N1CCN(C(=O)CCn2cccn2)CC1 — recorded Percent Effect = 6.93

Entry O=C1CC(c2ccncc2)C2(CCN(CCO)CC2)N1 (stereo unspecified) — recorded Percent Effect = -0.526

Entry O=C(NCC1CC1)C1CN(C(=O)c2ccncc2)CC12CCOCC2 (stereo unspecified) — recorded Percent Effect = 2.12

Entry CN(C)CCN1CCCC12CCN(C(=O)c1cnccn1)CC2 — recorded Percent Effect = 7.73

Entry Cn1ncc2c1C(COCC1CC1)CN(Cc1nccs1)C2 (stereo unspecified) — recorded Percent Effect = 8.47

###

Molecular target: Ubiquitin-activating enzyme e1, putative (Leishmania donovani (strain BPK282A1))
Assay: Leishmania donovani Ubiquitin Activating Enzyme (LdE1)
Format: functional
Set-up: scale not given: direction of the effect not stated beside the values
Conditions: 30 µM
Measured potencies and affinities stand elsewhere.
Respond with Condition met for Percent Effect values of 20% and above, Condition not met for values below.

1) Cc1nc(CNCC2CCCN2c2cccnn2)cs1 (stereo unspecified)	Condition not met
2) Cc1ccc(C)c(CNC(=O)NC(C)(C(=O)O)c2ccco2)c1 (stereo unspecified)	Condition met
3) O=C(NC1COC2(CCN(Cc3ccccn3)CC2)C1)c1ccccn1 (stereo unspecified)	Condition met
4) CC(C(=O)N1CCCN(c2ncccc2C#N)CC1)n1ccnc1 (stereo unspecified)	Condition met
5) NC(=O)c1cc(NC(=O)NCCc2cc(F)cc(F)c2)ccc1F	Condition not met

(Q) Could you tell me if the measured Percent Effect of Cc1nc(C2CCCN(C(=O)c3ccc(OCC4CC4)cc3)C2)no1 (stereo unspecified) reaches 20% or more?
(A) Condition not met
